# tgt: human GOAT (Homo sapiens (Human), UniProt Q96T53)
# Sequence (Q96T53 whole entry): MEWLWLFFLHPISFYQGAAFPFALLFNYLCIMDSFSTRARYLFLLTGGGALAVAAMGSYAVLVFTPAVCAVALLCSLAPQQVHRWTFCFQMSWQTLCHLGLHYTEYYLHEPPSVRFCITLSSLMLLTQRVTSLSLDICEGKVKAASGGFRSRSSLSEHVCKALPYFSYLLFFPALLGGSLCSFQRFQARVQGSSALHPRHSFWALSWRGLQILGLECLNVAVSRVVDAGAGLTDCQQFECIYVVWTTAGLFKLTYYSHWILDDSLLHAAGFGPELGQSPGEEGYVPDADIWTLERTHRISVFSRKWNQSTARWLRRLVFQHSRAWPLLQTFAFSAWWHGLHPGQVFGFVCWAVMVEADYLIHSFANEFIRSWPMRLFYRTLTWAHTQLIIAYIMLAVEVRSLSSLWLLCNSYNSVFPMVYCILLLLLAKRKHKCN
# procedure text: Determination of hGOAT Activity in HEK293 Cells after Incubation with Test Compound
# run conditions: HEK293 cells stably transfected with preproghrelin and human GOAT; octanoate-BSA 100 μM; acyl-ghrelin in medium by ELISA after 5 hours
endpoint name: IC50 (nM)
Reply numerically in nM, unit not repeated.

I would be grateful if you could share the reported IC50 for COC(=O)Cc1ccc(Cc2c(C)nc3nonc3c2N)nc1 [Example 10] .
13

What about Cc1nc2nonc2c(N)c1Cc1ccc(Br)c(NC2CC2)n1 [Example 125] ?
0.038

And what about the compound Cc1nc2nonc2c(N)c1Cc1nc(C#N)cc(C(F)F)n1 [Example 165] ?
14

Now consider Cc1nc2nonc2c(N)c1Cc1ncc(C#N)c(C(F)F)n1 [Example 79] and answer again.
0.59

Try this compound next: Cc1nc(Cc2c(C)nc3nonc3c2N)ncc1C#N [Example 81]
7

Can you handle Cc1nc2nonc2c(N)c1Cc1ccc(Br)c(OC2COC2)n1 [Example 98] next?
1.9

Would you kindly repeat that for Cc1nc2nonc2c(N)c1Cc1cccc(C2(C#N)CCCC2)n1 [Example 64] ?
0.1

Further, for Cc1nc2nonc2c(N)c1Cc1ccc(S(C)(=O)=O)c(O)n1 [Example 159] ?
15

Subsequent entry: Cc1nc2nonc2c(N)c1Cc1ccc(C#N)c(F)n1 [Example 72]
1.1

Another compound: Cc1nc2nonc2c(N)c1Cc1cccc(C#N)n1 [Example 164]
7.4

====

Exercise: for every item that follows, state its recorded IC50.
# tgt: human GOAT (Homo sapiens (Human), UniProt Q96T53)
# procedure text: Determination of hGOAT Activity in HEK293 Cells after Incubation with Test Compound
# run conditions: HEK293 cells stably transfected with preproghrelin and human GOAT; octanoate-BSA 100 μM; acyl-ghrelin in medium by ELISA after 5 hours
# Method: Determination of hGOAT Activity in HEK293 Cells after Incubation with Test Compound HEK293 cells stably transfected with two expression vectors, one coding for preproghrelin cDNA and a second for the expression of human GOATcDNA are used as a cellular model. After feeding the cells with octanoic acid for 5 hours, acyl-ghrelin is measured in cell culture medium by an ELISA procedure. Cellline: Hek293 hGOAT/PPGhrl Clone #1B8Sodium octanoate, Sigma, Cat.-No. C5038 […]
Just the number in pM, nothing appended.

Hello, I am looking for reported IC50 with human GOAT (Homo sapiens (Human), UniProt Q96T53) for Cc1nc2nonc2c(N)c1Cc1ncc(C#N)c(C(F)(F)F)n1 . Could you help?
360

Now consider Cc1nc2nonc2c(N)c1Cc1ccc(Br)c(OCC2(C)COC2)n1 and answer again.
82

Proceed to Cc1nc2nonc2c(N)c1Cc1ccc(Br)c(OCCCF)n1
74

Also Cc1nc2nonc2c(N)c1Cc1cccc(-c2cn(C)nc2C(F)(F)F)n1 ?
290

Continue with Cc1nc2nonc2c(N)c1Cc1ccc(NCC(F)F)c(C#N)n1
170

Can you handle CSc1cccc(Cc2c(C)nc3nonc3c2N)n1 next?
280

Thanks! And Cc1nc2nonc2c(N)c1Cc1ccc(S(C)(=O)=O)c(S(C)(=O)=O)n1 ?
3000

Could you do the same for Cc1nc2nonc2c(N)c1Cc1cc(C(N)=O)ccn1 , please?
16000

Field entry: Cc1nc2nonc2c(N)c1Cc1ccc(Br)c(=O)[nH]1
2500
